- Test system: U2OS
- MEASUREMENT_DESCRIPTION: Multiplex assay against U2OS
- Format: toxicity, cell-based
- MEASUREMENT_PARAMETERS: human, 24 h, 10 µM, compound concentration 10 uM, replicate 1
Threshold check on Population Pyknosed Nuclei (%): at or above 30% gives Fulfilled, strictly below gives Not fulfilled.

q: Is the recorded value of Population Pyknosed Nuclei (%) equal to or greater than 30% for this molecule? Cc1nc(N2CC[C@H](O)C2)ncc1-c1cc(C(F)(F)F)cc2[nH]ncc12
a: Not fulfilled

q: Is the recorded value of Population Pyknosed Nuclei (%) equal to or greater than 30% for this molecule? COC(=O)C1=C(C)NC(C)=C(C(=O)OCCCN2CCC(c3ccccc3)(c3ccccc3)CC2)[C@H]1c1cccc([N+](=O)[O-])c1
a: Not fulfilled

q: Is the recorded value of Population Pyknosed Nuclei (%) equal to or greater than 30% for this molecule? C=CC(=O)Nc1cccc(Sc2nc(Nc3ccc(N4CCN(C)CC4)cc3)ncc2Cl)c1
a: Not fulfilled

q: Is the recorded value of Population Pyknosed Nuclei (%) equal to or greater than 30% for this molecule? Cc1cccc(CN2CCN(C(c3ccccc3)c3ccc(Cl)cc3)CC2)c1.Cl.Cl (stereo not given)
a: Not fulfilled

q: Is the recorded value of Population Pyknosed Nuclei (%) equal to or greater than 30% for this molecule? Cc1c[nH]c2nccc(Oc3c(F)cc(Nc4cc(Cl)nc(N)n4)cc3F)c12
a: Not fulfilled

q: Is the recorded value of Population Pyknosed Nuclei (%) equal to or greater than 30% for this molecule? CC(C)OC(=O)N1CCC(Oc2ncnc3c2cnn3-c2ccc(S(C)(=O)=O)cc2F)CC1
a: Not fulfilled

q: Is the recorded value of Population Pyknosed Nuclei (%) equal to or greater than 30% for this molecule? CC(C)NC(=O)N1CC[C@H](NC2=Nc3cc(F)ccc3N(CC(F)F)c3ccc(Cl)cc32)C1
a: Not fulfilled

q: Is the recorded value of Population Pyknosed Nuclei (%) equal to or greater than 30% for this molecule? CNC(=O)Nc1ccc2c(c1)[C@@]1(CC2)OC(=O)N(CC(=O)N(Cc2ccc(F)cc2)[C@@H](C)C(F)(F)F)C1=O
a: Not fulfilled

q: Is the recorded value of Population Pyknosed Nuclei (%) equal to or greater than 30% for this molecule? C[C@]12CC[C@@H]3c4ccc(O)cc4CC[C@H]3[C@@H]1CC[C@@H]2O
a: Not fulfilled

q: Is the recorded value of Population Pyknosed Nuclei (%) equal to or greater than 30% for this molecule? COc1cc(Nc2nccc(-c3cnn4nc(OC)ccc34)n2)cc(C(F)(F)F)c1
a: Not fulfilled

q: Is the recorded value of Population Pyknosed Nuclei (%) equal to or greater than 30% for this molecule? CCc1nn(CCCN2CCN(c3cccc(Cl)c3)CC2)c(=O)n1CCOc1ccccc1.Cl [NEFAZODONE HYDROCHLORIDE]
a: Fulfilled

q: Is the recorded value of Population Pyknosed Nuclei (%) equal to or greater than 30% for this molecule? CCCSc1nc(N[C@@H]2C[C@H]2c2ccc(F)c(F)c2)c2nnn([C@@H]3C[C@H](OCCO)[C@@H](O)[C@H]3O)c2n1
a: Not fulfilled

q: Is the recorded value of Population Pyknosed Nuclei (%) equal to or greater than 30% for this molecule? CC(C)Oc1ccccc1C(=O)Nc1ccccc1C(=O)Nc1cccc(S(=O)(=O)C(F)(F)F)c1
a: Not fulfilled

q: Is the recorded value of Population Pyknosed Nuclei (%) equal to or greater than 30% for this molecule? CNC(=O)Nc1ccc(-c2nc(N3CC4CCC(C3)O4)c3cnn(C4CCC5(CC4)OCCO5)c3n2)cc1
a: Fulfilled

q: Is the recorded value of Population Pyknosed Nuclei (%) equal to or greater than 30% for this molecule? Cl.O=C(O)c1cc(-c2ccc(C3CCNCC3)cc2)c2ccc(-c3ccc(C(F)(F)F)cc3)cc2c1
a: Not fulfilled

q: Is the recorded value of Population Pyknosed Nuclei (%) equal to or greater than 30% for this molecule? CC(C)CC(=O)Nc1[nH]nc2c1CN(C(=O)C1CCN(C)CC1)C2(C)C
a: Not fulfilled

q: Is the recorded value of Population Pyknosed Nuclei (%) equal to or greater than 30% for this molecule? C=CC(=O)Nc1cccc(Oc2nc(Nc3ccc(N4CCN(C)CC4)cc3OC)ncc2Cl)c1
a: Not fulfilled

q: Is the recorded value of Population Pyknosed Nuclei (%) equal to or greater than 30% for this molecule? COc1ccc(-c2ccc3ncc4c(c3c2)n(-c2ccc(N3CCNCC3)c(C(F)(F)F)c2)c(=O)n4C)cn1.O=C(O)/C=C\C(=O)O
a: Fulfilled

q: Is the recorded value of Population Pyknosed Nuclei (%) equal to or greater than 30% for this molecule? O=c1cc(N2CCOCC2)oc2c(-c3cccc4c3sc3ccccc34)cccc12
a: Fulfilled

q: Is the recorded value of Population Pyknosed Nuclei (%) equal to or greater than 30% for this molecule? O=C(c1cc2c(cc1F)OC(c1ccc(F)cc1)(c1ccc(Cl)cc1Cl)O2)N1CCOCC1 (stereo not given)
a: Not fulfilled

q: Is the recorded value of Population Pyknosed Nuclei (%) equal to or greater than 30% for this molecule? CC(C)c1noc(N2CCC(COc3ccc(-c4ccc(S(C)(=O)=O)cc4)nc3)CC2)n1
a: Not fulfilled

q: Is the recorded value of Population Pyknosed Nuclei (%) equal to or greater than 30% for this molecule? CN1CCN(Cc2ccc(Nc3ncc(Cl)c(Nc4ccccc4S(=O)(=O)N(C)C)n3)cc2)CC1
a: Fulfilled

q: Is the recorded value of Population Pyknosed Nuclei (%) equal to or greater than 30% for this molecule? COc1cc2ncn(-c3cc(OCc4ccccc4C(F)(F)F)c(C(N)=O)s3)c2cc1OC [GW843682X]
a: Not fulfilled

q: Is the recorded value of Population Pyknosed Nuclei (%) equal to or greater than 30% for this molecule? CCc1ccc(OCc2ccccc2C(=O)Nc2ccc3nc(C)cc(N)c3c2)cc1.Cl
a: Fulfilled

q: Is the recorded value of Population Pyknosed Nuclei (%) equal to or greater than 30% for this molecule? COc1ccccc1CN[C@H]1C2CCN(CC2)[C@H]1C(c1ccccc1)c1ccccc1
a: Not fulfilled

q: Is the recorded value of Population Pyknosed Nuclei (%) equal to or greater than 30% for this molecule? CC(C)(C)NC[C@H](O)COc1nsnc1N1CCOCC1
a: Not fulfilled

q: Is the recorded value of Population Pyknosed Nuclei (%) equal to or greater than 30% for this molecule? CC1=C(C(=O)Nc2cc3cn[nH]c3cc2F)C(c2ccc(C(F)(F)F)cc2)CC(=O)N1 (stereo not given)
a: Not fulfilled

q: Is the recorded value of Population Pyknosed Nuclei (%) equal to or greater than 30% for this molecule? Cc1ccc2c(c1)c1c(n2CCc2ccc(C)nc2)CCN(C)C1 [LATREPIRDINE]
a: Fulfilled

q: Is the recorded value of Population Pyknosed Nuclei (%) equal to or greater than 30% for this molecule? C=CC(=O)Nc1ccc2[nH]c(=O)n(C3CCN(Cc4ccc(-c5nc6cc[nH]c(=O)c6cc5-c5ccccc5)cc4)CC3)c2c1
a: Not fulfilled
